Attribute: pIC50
# target-or-system: α4β1 integrin (Jurkat T-cell adhesion to IL-1 stimulated endothelial cell monolayers) (Homo sapiens, UniProt P05556+P13612)
# Construct: a T-cell line, Jurkat, known to express the α4β1 integrin
# Sequence (P13612 34-1032): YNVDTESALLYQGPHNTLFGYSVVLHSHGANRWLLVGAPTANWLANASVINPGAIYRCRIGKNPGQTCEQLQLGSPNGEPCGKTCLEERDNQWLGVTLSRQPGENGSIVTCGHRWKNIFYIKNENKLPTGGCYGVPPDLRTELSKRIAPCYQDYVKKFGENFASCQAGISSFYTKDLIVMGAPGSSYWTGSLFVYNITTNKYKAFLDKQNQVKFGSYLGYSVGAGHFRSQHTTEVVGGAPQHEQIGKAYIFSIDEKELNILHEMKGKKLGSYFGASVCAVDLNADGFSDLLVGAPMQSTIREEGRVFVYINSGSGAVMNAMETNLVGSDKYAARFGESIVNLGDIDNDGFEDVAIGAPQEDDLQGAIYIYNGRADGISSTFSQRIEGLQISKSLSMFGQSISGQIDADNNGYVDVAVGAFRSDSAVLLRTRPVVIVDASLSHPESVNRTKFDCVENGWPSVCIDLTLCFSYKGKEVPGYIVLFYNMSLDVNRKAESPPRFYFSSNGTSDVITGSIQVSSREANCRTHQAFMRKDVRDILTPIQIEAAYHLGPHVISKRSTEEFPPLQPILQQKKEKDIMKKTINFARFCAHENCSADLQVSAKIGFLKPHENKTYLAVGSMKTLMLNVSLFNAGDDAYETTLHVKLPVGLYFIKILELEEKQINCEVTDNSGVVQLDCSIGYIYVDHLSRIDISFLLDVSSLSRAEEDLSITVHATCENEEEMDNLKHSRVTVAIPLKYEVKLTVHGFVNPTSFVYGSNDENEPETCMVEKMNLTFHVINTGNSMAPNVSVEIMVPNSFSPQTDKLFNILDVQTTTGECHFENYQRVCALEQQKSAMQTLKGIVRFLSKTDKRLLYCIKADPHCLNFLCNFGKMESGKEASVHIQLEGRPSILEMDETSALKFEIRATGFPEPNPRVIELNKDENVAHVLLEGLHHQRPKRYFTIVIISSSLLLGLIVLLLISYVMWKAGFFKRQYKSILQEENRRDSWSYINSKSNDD
# Sequence (P05556 21-798): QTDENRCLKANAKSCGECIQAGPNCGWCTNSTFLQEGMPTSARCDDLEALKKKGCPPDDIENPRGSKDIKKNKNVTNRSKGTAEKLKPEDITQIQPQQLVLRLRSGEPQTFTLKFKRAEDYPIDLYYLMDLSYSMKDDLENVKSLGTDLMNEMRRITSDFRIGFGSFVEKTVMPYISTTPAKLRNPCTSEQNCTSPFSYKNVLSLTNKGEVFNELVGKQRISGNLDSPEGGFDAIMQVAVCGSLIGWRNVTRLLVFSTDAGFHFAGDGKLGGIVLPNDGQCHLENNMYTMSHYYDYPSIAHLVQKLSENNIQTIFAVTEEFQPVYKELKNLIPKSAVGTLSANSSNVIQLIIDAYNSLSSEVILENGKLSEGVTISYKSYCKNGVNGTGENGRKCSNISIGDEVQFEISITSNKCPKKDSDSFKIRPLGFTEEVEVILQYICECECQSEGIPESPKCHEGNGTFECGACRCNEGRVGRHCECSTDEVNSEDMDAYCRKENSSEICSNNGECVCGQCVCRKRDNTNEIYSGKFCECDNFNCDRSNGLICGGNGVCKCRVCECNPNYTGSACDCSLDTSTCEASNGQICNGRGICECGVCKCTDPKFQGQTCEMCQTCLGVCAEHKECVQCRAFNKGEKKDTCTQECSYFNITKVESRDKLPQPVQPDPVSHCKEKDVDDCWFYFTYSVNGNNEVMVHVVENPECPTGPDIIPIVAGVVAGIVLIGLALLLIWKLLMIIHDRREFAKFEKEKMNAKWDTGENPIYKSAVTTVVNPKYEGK
# assay-notes: Jurkat-Endothelial Cell Adhesion Assay (Jurkat EC)
# applied-conditions: Jurkat cells on IL-1 stimulated HUVEC monolayers
pIC50: −log10 of the molar value. Structures can show the parent of a compound that is named as a salt.

| molecule | pIC50 |
| --- | --- |
| CC1(C)[C@@H](C(=O)N[C@@H](Cc2ccc(NC(=O)c3c(Cl)cccc3Cl)cc2)C(=O)O)CC[C@@]1(C)C(=O)N1CCOCC1 | ≥ 6.10 |
| COC(=O)[C@H](Cc1ccc(NC(=O)c2c(Cl)cccc2Cl)cc1)NC(=O)[C@H]1CC[C@@](C)(C(=O)O)C1(C)C | 5.30 to 6.10 |
| CC1(C)[C@@H](C(=O)N[C@@H](Cc2ccc(NC(=O)c3c(Cl)cccc3Cl)cc2)C(=O)O)CC[C@@]1(C)C(=O)NCCC#N | ≥ 6.10 |
| CC1(C)[C@@H](C(=O)O)CC[C@@]1(C)NC(=O)N[C@]1(C)CC[C@H](C(=O)N[C@@H](Cc2ccc(NC(=O)c3c(Cl)cccc3Cl)cc2)C(=O)O)C1(C)C (relative stereo) | ≥ 6.10 |
| CC1(C)[C@@H](C(=O)N[C@@H](Cc2ccc(NC(=O)c3ccc(Cl)c(Cl)c3)cc2)C(=O)O)CC[C@@]1(C)C(=O)O | ≥ 6.10 |
| COC(=O)[C@H](Cc1ccc(NC(=O)c2cc(C(F)(F)F)ccc2C(F)(F)F)cc1)NC(=O)[C@H]1CC[C@@](C)(C(=O)O)C1(C)C | ≥ 6.10 |
| CC1(C)[C@@H](C(=O)N[C@@H](Cc2ccc(NC(=O)c3cc(Br)ccc3Br)cc2)C(=O)O)CC[C@@]1(C)C(=O)O | ≥ 6.10 |
| CC1(C)[C@@H](C(=O)N[C@@H](Cc2ccc(NC(=O)c3ccc4ccccc4c3)cc2)C(=O)O)CC[C@@]1(C)C(=O)O | 5.30 to 6.10 |
| CC1(C)[C@@H](C(=O)N[C@@H](Cc2ccc(NC(=O)c3cccc([N+](=O)[O-])c3)cc2)C(=O)O)CC[C@@]1(C)C(=O)O | 5.30 to 6.10 |
| CC1(C)[C@@H](C(=O)N[C@@H](Cc2cn(Cc3ccccc3C(F)(F)F)cn2)C(=O)O)CC[C@@]1(C)C(=O)O | 5.00 to 5.30 |
| CNC(=O)[C@@H]1CCCN1C(=O)[C@]1(C)CC[C@H](C(=O)N[C@@H](Cc2ccc(NC(=O)c3c(Cl)cccc3Cl)cc2)C(=O)O)C1(C)C (relative stereo) [Example 215, monosodium salt] | ≥ 6.10 |
| CC1(C)[C@@H](C(=O)N[C@@H](Cc2ccc(NC(=O)c3c(Cl)cccc3Cl)cc2)C(=O)O)CC[C@@]1(C)C(=O)NO | ≥ 6.10 |

Where do these numbers come from? They come from patent US6482849B1.
